Task for the reader: assign each of the following compounds its reported pIC50.
- target-under-test: alkyltransferase (AGT), HT29 cells (Homo sapiens, UniProt P16455)
- Construct: human colon tumor cells HT29 and intact HT29 cells; endogenous in cells; host or cells: HT29 human colon tumor cells, intact
- Sequence (P16455 whole entry): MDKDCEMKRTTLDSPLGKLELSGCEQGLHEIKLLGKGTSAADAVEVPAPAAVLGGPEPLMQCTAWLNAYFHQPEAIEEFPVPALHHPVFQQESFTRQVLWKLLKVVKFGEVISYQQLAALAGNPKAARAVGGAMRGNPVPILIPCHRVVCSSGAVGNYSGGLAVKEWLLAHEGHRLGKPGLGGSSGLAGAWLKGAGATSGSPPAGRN
- test-details: AGT depletion/inactivation in intact HT29 cells
- Assay type: cell-based
- settings: HT29 cells, 4 h incubation; 50% inactivation (Table 2); read-out: ED50 In cells
// pIC50 is dimensionless: -log10 of concentration (M)

Query string: Lab note: need pIC50 with alkyltransferase (AGT), HT29 cells (Homo sapiens, UniProt P16455) for entry "CCOC(=O)Cn1cnc2c(OCc3ccccc3)nc(N)nc21" , please look it up.
Result string: 5.52

Query string: Lab note: need pIC50 with alkyltransferase (AGT), HT29 cells (Homo sapiens, UniProt P16455) for entry "Cc1ccc(COc2nc(N)nc3nc[nH]c23)cc1" , please look it up.
Result string: 7.10

Query string: Lab note: need pIC50 with alkyltransferase (AGT), HT29 cells (Homo sapiens, UniProt P16455) for entry "Nc1nc(OCc2ccc(Cl)cc2)c2ncn([C@@H]3O[C@H](CO)[C@@H](O)[C@H]3O)c2n1" , please look it up.
Result string: 5.30

Query string: Lab note: need pIC50 with alkyltransferase (AGT), HT29 cells (Homo sapiens, UniProt P16455) for entry "COc1nc(N)nc2nc[nH]c12" , please look it up.
Result string: 3.92

Query string: Lab note: need pIC50 with alkyltransferase (AGT), HT29 cells (Homo sapiens, UniProt P16455) for entry "Nc1nc(OCc2ccccc2)c2ncn([C@@H]3O[C@H](CO)[C@@H](O)[C@H]3O)c2n1" , please look it up.
Result string: 5.70

Query string: Lab note: need pIC50 with alkyltransferase (AGT), HT29 cells (Homo sapiens, UniProt P16455) for entry "Nc1nc(OCc2ccccc2)c2ncn([C@H]3C[C@H](O)[C@@H](CO)O3)c2n1" , please look it up.
Result string: 6.30

Query string: Lab note: need pIC50 with alkyltransferase (AGT), HT29 cells (Homo sapiens, UniProt P16455) for entry "Cc1ccc(COc2nc(N)nc3c2ncn3[C@@H]2O[C@H](CO)[C@@H](O)[C@H]2O)cc1" , please look it up.
Result string: 5.52

Query string: Lab note: need pIC50 with alkyltransferase (AGT), HT29 cells (Homo sapiens, UniProt P16455) for entry "Nc1nc(OCc2ccc(Cl)cc2)c2nc[nH]c2n1" , please look it up.
Result string: 7.10

----------
- target-under-test: alkyltransferase (AGT), HT29 cell-free extract (Homo sapiens, UniProt P16455)
- Sequence (P16455 whole entry): as above
- test-details: biochemical
- settings: HT29 cell-free extract, 30 min incubation; 50% inactivation (Table 2); read-out: ED50 In cell-free extract
Lab note: anything with IC50 below 9 µM is marked yes (1); values at 9 µM or higher are marked no (0).

Query string: For Nc1nc(OCc2ccc(Cl)cc2)c2ncn([C@@H]3O[C@H](CO)[C@@H](O)[C@H]3O)c2n1 [O^6 -(p-chlorobenzyl)guanosine] , is the recorded IC50 below the cut-off of 9 µM?
Result string: no (0)

Query string: For COc1nc(N)nc2nc[nH]c12 [O^6 -methylguanine] , is the recorded IC50 below the cut-off of 9 µM?
Result string: no (0)

Query string: For Nc1nc(OCc2ccc(Cl)cc2)c2nc[nH]c2n1 [O^6 -(p-chlorobenzyl)guanine, O^6 -(p-chlorobenzyl) guanine] , is the recorded IC50 below the cut-off of 9 µM?
Result string: yes (1)

Query string: For Cc1ccc(COc2nc(N)nc3nc[nH]c23)cc1 [O^6 -(p-methylbenzyl)guanine] , is the recorded IC50 below the cut-off of 9 µM?
Result string: yes (1)

Query string: For Nc1nc(OCc2ccccc2)c2ncn(CC(=O)[O-])c2n1.[Na+] [sodium salt] , is the recorded IC50 below the cut-off of 9 µM?
Result string: no (0)

Query string: For Nc1nc(OCc2ccc(F)cc2)c2nc[nH]c2n1 [O^6 -(p-fluorobenzyl)guanine, O^6 -(p-fluorobenzyl) guanine] , is the recorded IC50 below the cut-off of 9 µM?
Result string: yes (1)

Query string: For Nc1nc(OCc2ccccc2)c2ncn([C@@H]3O[C@H](CO)[C@@H](O)[C@H]3O)c2n1 [O^6 -benzylguanosine] , is the recorded IC50 below the cut-off of 9 µM?
Result string: no (0)

Query string: For Nc1nc(OCc2ccccc2)c2ncn([C@H]3C[C@H](O)[C@@H](CO)O3)c2n1 [O^6-benzyl-2'-deoxyguanosine] , is the recorded IC50 below the cut-off of 9 µM?
Result string: yes (1)

Query string: For CCOC(=O)Cn1cnc2c(OCc3ccccc3)nc(N)nc21 [Example 3b] , is the recorded IC50 below the cut-off of 9 µM?
Result string: no (0)
